Test system: RAW 264.7 macrophages
Experiment: SAFIRE macrophage assay: host toxicity (adherent macrophage count, morphology)
Type: cell-based
Conditions: 5 uM compound; n=1; DMSO solvent control = 100
Here the recorded 5 uM Avg Cell # Score is given for each entry.

| compound | 5 uM Avg Cell # Score |
| --- | --- |
| NC1CCN(CC(O)COc2cccc(C(F)(F)F)c2)CC1 (centres unmarked) | 124 |
| N[C@H]1CC[C@H](NCC(O)COc2ccc(Cl)c(Cl)c2)CC1 (some centres unmarked) | 117 |
| OC(CN[C@H]1[C@@H]2CNC[C@@H]21)COc1ccc(Cl)c(Cl)c1 (some centres unmarked) | 121 |
| N[C@@H]1CCN(C[C@@H](O)COc2ccc(Cl)c(Cl)c2)C1 | 129 |
| NC1CCN(CC(O)COc2ccccc2C(F)(F)F)CC1 (centres unmarked) | 128 |
| N[C@H]1CCN(C[C@H](O)COc2ccc(Cl)c(Cl)c2)C1 | 126 |
| O[C@@H](COc1ccc(Cl)c(Cl)c1)CN1CCCC1 | 119 |
| N[C@H]1CC[C@@H](NCC(O)COc2ccc(Cl)c(Cl)c2)CC1 (some centres unmarked) | 122 |
| NCCC1CCN(CC(O)COc2cc(Cl)cc(Cl)c2)C1 (centres unmarked) | 114 |
| CC1(N)CCN(CC(O)COc2cc(Cl)cc(Cl)c2)CC1 (centres unmarked) | 129 |
| N[C@H]1CCN(C[C@@H](O)COc2ccc(Cl)c(Cl)c2)C1 | 118 |
| OC(COc1cc(Cl)cc(Cl)c1)CN1CCCCC1 (centres unmarked) | 118 |
| NC1CCCN(CC(O)COc2cc(Cl)cc(Cl)c2)CC1 (centres unmarked) | 112 |
| CC1(N)CCN(CC(O)COc2ccc(Cl)c(Cl)c2)CC1 (centres unmarked) | 125 |

###

Tested on: RAW 264.7 macrophages
Test: SAFIRE macrophage assay: host toxicity (adherent macrophage count, morphology)
Assay type: cell-based
Details: 25 uM
Method: In SAFIRE, we used MATLAB software to count the number of macrophages that remain adherent and retain the red fluorescence of MitoTracker, an indicator of voltage across the mitochondrial inner membrane. […] Non-toxic analogs that reduced bacterial load by at least 60% at 5 µM and 25 µM in SAFIRE, as compared with DMSO, progressed and were evaluated in SAFIRE across eight or more concentrations, ranging from 0.001 µM to 50 µM (n = 2). […]
Listing: 25 uM Avg Cell # Score of selected compounds
propertyLabel: 25 uM Avg Cell # Score

| compound | propertyLabel | observedMeasurement |
| --- | --- | --- |
| NC(=O)[C@H]1CC[C@@H](NCC(O)COc2ccc(Cl)c(Cl)c2)C1 (stereo partly shown) [CU066] | 25 uM Avg Cell # Score | 86 |
| OC(COc1cc(Cl)cc(Cl)c1)CN1CCC(Nc2nccc(C(F)(F)F)n2)C1 (stereo not shown) [CU088] | 25 uM Avg Cell # Score | 98 |
| Cc1nnc(CN(C)CC(O)COc2ccc(Cl)c(Cl)c2)o1 (stereo not shown) [CU130] | 25 uM Avg Cell # Score | 73 |
| CC(=O)N(CCNc1nccc(C(F)(F)F)n1)CC(O)COc1ccc(Cl)c(Cl)c1 (stereo not shown) [CU071] | 25 uM Avg Cell # Score | 56 |
| O=C1OC(COc2ccc(Cl)c(Cl)c2)CN1c1ccc(N2CCOCC2)cc1 (stereo not shown) [CU195] | 25 uM Avg Cell # Score | 82 |
| N[C@H]1CCN(CC(O)COc2ccc(Cl)c(Cl)c2)C1 (stereo partly shown) [CU194] | 25 uM Avg Cell # Score | 103 |
| Cc1cc(CNCC(O)COc2ccc(Cl)c(Cl)c2)sc1C (stereo not shown) [CU135] | 25 uM Avg Cell # Score | 103 |
| O=C(O)c1cn(C2CC2)c2cc(N3CCN(CC(O)COc4ccc(Cl)c(Cl)c4)CC3)c(F)cc2c1=O (stereo not shown) [CU196] | 25 uM Avg Cell # Score | 13 |
| OC(COc1ccccc1)CN1CCC(Nc2ncccn2)CC1 (stereo not shown) [CU043] | 25 uM Avg Cell # Score | 107 |
| OC(CNC1Cc2ccccc2C1)COc1ccc(Cl)c(Cl)c1 (stereo not shown) [CU159] | 25 uM Avg Cell # Score | 97 |
| COc1ccc(OCC(O)CN2CCC(Nc3nccc(C(F)(F)F)n3)CC2)cc1 (stereo not shown) [CU036] | 25 uM Avg Cell # Score | 120 |
| CNC1CCN(CC(O)COc2ccc(F)c(F)c2)C1 (stereo not shown) [CU176] | 25 uM Avg Cell # Score | 111 |
| OC(COc1ccc2ccccc2c1)CN1CCC(Nc2nccc(C(F)(F)F)n2)CC1 (stereo not shown) [CU078] | 25 uM Avg Cell # Score | 133 |
| O=C(CCOc1ccc(Cl)c(Cl)c1)N1CCC(Nc2nccc(C(F)(F)F)n2)CC1 [CU110] | 25 uM Avg Cell # Score | 27 |
| OC(COc1ccccc1)CN1CCC(Nc2nccc(C(F)(F)F)n2)C1 (stereo not shown) [CU083] | 25 uM Avg Cell # Score | 95 |
| COCCCN(C)C1CCN(CC(O)COc2ccc(Cl)c(Cl)c2)CC1 (stereo not shown) [CU210] | 25 uM Avg Cell # Score | 112 |
| O=C1OC(COc2ccc(Cl)c(Cl)c2)CN1C1CCNC1 (stereo not shown) [CU146] | 25 uM Avg Cell # Score | 117 |
| OC(COc1cc(F)cc(Br)c1)CN1CCC(Nc2nccc(C(F)(F)F)n2)CC1 (stereo not shown) [CU119] | 25 uM Avg Cell # Score | 50 |
| CO[C@H]1CCN(CC(O)COc2ccc(Cl)c(Cl)c2)C1 (stereo partly shown) [CU126] | 25 uM Avg Cell # Score | 86 |
| OC(COc1ccc(Cl)cc1)CN1CCC(Nc2ncccn2)CC1 (stereo not shown) [CU044] | 25 uM Avg Cell # Score | 100 |
| OC(COc1ccc(Cl)c(Cl)c1)CN1CCC2(CCN2)C1 (stereo not shown) [CU149] | 25 uM Avg Cell # Score | 108 |
| OC(CNCc1csc(Cl)c1)COc1ccc(Cl)c(Cl)c1 (stereo not shown) [CU155] | 25 uM Avg Cell # Score | 78 |
| OC(COc1ccc2c(c1)OCO2)CN1CCC(Nc2nccc(C(F)(F)F)n2)CC1 (stereo not shown) [CU080] | 25 uM Avg Cell # Score | 91 |
| OC(COc1ccccc1Cl)CN1CCC(NC2CC2)C1 (stereo not shown) [CU141] | 25 uM Avg Cell # Score | 137 |
| NC1CCN(CC(O)COc2ccccc2Cl)CC1 (stereo not shown) [CU189] | 25 uM Avg Cell # Score | 109 |
| OC(COc1ccc(Cl)cc1Cl)CN1CCC(NC2CC2)C1 (stereo not shown) [CU121] | 25 uM Avg Cell # Score | 89 |
| N[C@H]1CCN(CC(O)COc2cc(Cl)cc(Cl)c2)C1 (stereo partly shown) [CU204] | 25 uM Avg Cell # Score | 101 |
| OC(COc1ccc(Cl)c(Cl)c1)CN1CCC(N2CCOCC2)CC1 (stereo not shown) [CU185] | 25 uM Avg Cell # Score | 125 |
| O=C(CCOc1ccc(Cl)c(Cl)c1)N1CCC(Nc2nccc(C(F)(F)F)n2)C1 (stereo not shown) [CU111] | 25 uM Avg Cell # Score | 47 |
| OC(COc1ccc(Cl)c(Cl)c1)CN1CCCC(N2CCOCC2)C1 (stereo not shown) [CU030] | 25 uM Avg Cell # Score | 126 |
| CN(CC(O)COc1ccc(F)c(F)c1)C1CCNCC1 (stereo not shown) [CU178] | 25 uM Avg Cell # Score | 97 |
| OC(COc1ccc(Cl)c(Cl)c1)CN1CCC(Nc2nccc(C(F)(F)F)n2)CC1 (stereo not shown) [EPM35] | 25 uM Avg Cell # Score | 72 |
| OC1CCN(CC(O)COc2ccc(Cl)c(Cl)c2)CC1 (stereo not shown) [CU164] | 25 uM Avg Cell # Score | 126 |
| N#Cc1ccc(OCC(O)CN2CCC(Nc3nccc(C(F)(F)F)n3)C2)cc1 (stereo not shown) [CU094] | 25 uM Avg Cell # Score | 71 |
| Cc1cccc(OCC(O)CN2CCC(Nc3nccc(C(F)(F)F)n3)CC2)c1 (stereo not shown) [CU108] | 25 uM Avg Cell # Score | 27 |
| OC(CNCc1cccc2ccccc12)COc1ccc(Cl)c(Cl)c1 (stereo not shown) [CU133] | 25 uM Avg Cell # Score | 92 |
| OC(COc1ccc(Cl)cc1)CN1CCC(Nc2nccc(C(F)(F)F)n2)C1 (stereo not shown) [CU086] | 25 uM Avg Cell # Score | 27 |
| Cc1noc(CN(C)CC(O)COc2ccc(Cl)c(Cl)c2)n1 (stereo not shown) [CU131] | 25 uM Avg Cell # Score | 80 |
| CN(CC(O)COc1ccc(Cl)c(Cl)c1)C1CCNCC1 (stereo not shown) [CU177] | 25 uM Avg Cell # Score | 96 |
| CCc1ccc(OCC(O)CN2CCC(Nc3nccc(C(F)(F)F)n3)CC2)cc1 (stereo not shown) [CU074] | 25 uM Avg Cell # Score | 114 |
